Where these numbers come from: patent US7576217B2

biological target: human GABABR1aR2a (Homo sapiens, UniProt O75899+Q9UBS5); construct: expressed in transfected cells; assay: Intracellular Ca2+ mobilization assay in CHO-GABABR1aR2a-Gα16 cell (FLIPR); assay type: cell-based; conditions: GABA 0.0003-30 μM with and without 10 μM enhancer
Sequence (Q9UBS5 15-961 limits assumed): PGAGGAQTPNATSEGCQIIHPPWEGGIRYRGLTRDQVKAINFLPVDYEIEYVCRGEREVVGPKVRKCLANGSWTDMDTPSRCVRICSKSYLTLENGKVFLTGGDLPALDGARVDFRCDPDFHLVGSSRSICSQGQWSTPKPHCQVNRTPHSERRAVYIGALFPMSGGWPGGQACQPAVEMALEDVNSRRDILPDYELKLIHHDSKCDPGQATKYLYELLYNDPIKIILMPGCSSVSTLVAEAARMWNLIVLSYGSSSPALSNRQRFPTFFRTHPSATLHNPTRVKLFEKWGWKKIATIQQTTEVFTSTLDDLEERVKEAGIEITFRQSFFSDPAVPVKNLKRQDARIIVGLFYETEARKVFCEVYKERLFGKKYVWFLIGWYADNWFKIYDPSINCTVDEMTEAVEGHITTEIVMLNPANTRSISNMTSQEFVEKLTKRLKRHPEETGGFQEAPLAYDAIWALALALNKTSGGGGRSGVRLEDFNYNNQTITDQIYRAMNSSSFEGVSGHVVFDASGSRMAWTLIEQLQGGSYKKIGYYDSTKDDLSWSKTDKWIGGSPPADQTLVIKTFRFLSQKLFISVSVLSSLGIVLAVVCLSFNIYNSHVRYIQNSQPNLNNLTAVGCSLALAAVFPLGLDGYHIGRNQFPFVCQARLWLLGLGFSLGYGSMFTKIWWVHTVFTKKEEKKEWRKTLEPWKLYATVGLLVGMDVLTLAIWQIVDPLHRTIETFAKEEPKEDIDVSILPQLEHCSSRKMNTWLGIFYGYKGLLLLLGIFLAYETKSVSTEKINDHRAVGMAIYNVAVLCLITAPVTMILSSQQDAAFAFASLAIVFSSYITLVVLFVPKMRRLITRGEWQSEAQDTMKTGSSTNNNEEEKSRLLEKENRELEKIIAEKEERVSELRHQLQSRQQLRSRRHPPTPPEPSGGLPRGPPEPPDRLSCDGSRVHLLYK
Sequence (O75899 42-941): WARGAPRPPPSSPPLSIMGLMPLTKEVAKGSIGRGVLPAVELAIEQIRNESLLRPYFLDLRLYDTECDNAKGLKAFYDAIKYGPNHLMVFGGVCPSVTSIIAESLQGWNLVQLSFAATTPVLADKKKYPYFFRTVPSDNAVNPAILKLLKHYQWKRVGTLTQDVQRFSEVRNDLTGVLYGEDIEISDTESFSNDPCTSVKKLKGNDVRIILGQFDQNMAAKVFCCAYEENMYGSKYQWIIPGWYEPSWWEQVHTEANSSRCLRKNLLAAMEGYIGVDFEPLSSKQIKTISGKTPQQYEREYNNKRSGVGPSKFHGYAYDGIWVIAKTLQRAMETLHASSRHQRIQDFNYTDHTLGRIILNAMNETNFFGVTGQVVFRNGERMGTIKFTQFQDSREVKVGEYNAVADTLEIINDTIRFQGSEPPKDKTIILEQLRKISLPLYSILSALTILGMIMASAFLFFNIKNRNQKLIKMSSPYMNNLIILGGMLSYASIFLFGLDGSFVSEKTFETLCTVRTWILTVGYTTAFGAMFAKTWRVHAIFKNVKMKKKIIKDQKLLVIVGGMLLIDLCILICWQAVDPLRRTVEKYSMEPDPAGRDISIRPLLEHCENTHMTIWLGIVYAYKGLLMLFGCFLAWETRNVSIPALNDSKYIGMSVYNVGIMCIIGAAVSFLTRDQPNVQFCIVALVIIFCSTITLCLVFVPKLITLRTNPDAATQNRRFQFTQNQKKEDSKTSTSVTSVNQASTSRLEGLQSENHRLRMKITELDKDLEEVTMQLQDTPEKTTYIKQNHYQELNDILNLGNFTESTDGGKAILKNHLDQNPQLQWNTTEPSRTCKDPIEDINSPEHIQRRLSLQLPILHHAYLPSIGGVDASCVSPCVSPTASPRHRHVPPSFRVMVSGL
Quantity measured: GABA shift Log [EC50(GABA + 10 μM cp)/EC50(GABA alone)]

// molecule Cc1nc2ccc(OC(F)(F)F)cc2c(-c2ccccc2)c1C(=O)C(F)(F)F , assay human GABABR1aR2a (Homo sapiens, UniProt O75899+Q9UBS5), GABA shift Log [EC50(GABA + 10 μM cp)/EC50(GABA alone)] value: −1.00

// molecule Cc1nc2cc3c(cc2c(-c2ccccc2)c1C(=O)C(F)(F)F)OC(F)(F)O3 , assay human GABABR1aR2a (Homo sapiens, UniProt O75899+Q9UBS5), GABA shift Log [EC50(GABA + 10 μM cp)/EC50(GABA alone)] value: −0.70

// molecule CC(=O)c1c(C)nc2ccc(OC(F)(F)F)cc2c1-c1cccc(Cl)c1 , assay human GABABR1aR2a (Homo sapiens, UniProt O75899+Q9UBS5), GABA shift Log [EC50(GABA + 10 μM cp)/EC50(GABA alone)] value: −1.15

// molecule Cc1nc2ccc(Br)cc2c(-c2ccccc2)c1C(=O)C(F)(F)F , assay human GABABR1aR2a (Homo sapiens, UniProt O75899+Q9UBS5), GABA shift Log [EC50(GABA + 10 μM cp)/EC50(GABA alone)] value: −1.20

// molecule Cc1nc2ccc(Br)cc2c(-c2ccc(F)cc2)c1C(=O)C1CC1 , assay human GABABR1aR2a (Homo sapiens, UniProt O75899+Q9UBS5), GABA shift Log [EC50(GABA + 10 μM cp)/EC50(GABA alone)] value: −0.90

// molecule Cc1nc2ccc(N3CCCCC3)cc2c(-c2ccc(F)cc2)c1C(=O)C(F)(F)F , assay human GABABR1aR2a (Homo sapiens, UniProt O75899+Q9UBS5), GABA shift Log [EC50(GABA + 10 μM cp)/EC50(GABA alone)] value: −0.90

###

biological target: human GABABR1aR2a (Homo sapiens, UniProt O75899+Q9UBS5); construct: expressed in transfected cells; assay: Intracellular Ca2+ mobilization assay in CHO-GABABR1aR2a-Gα16 cell (FLIPR); assay type: cell-based; details: enhancer 0.001-30 μM in presence of 10 nM GABA (EC10); applied 15 min before GABA; read-out: Emax (%) at 10 nM GABA alone = 0% 10 μM GABA alone = 100%
Quantity measured: Emax (%)

Would you please look over these solved cases?
// sample Cc1nc2ccc(N3CCCCC3)cc2c(-c2ccc(F)cc2)c1C(=O)C(F)(F)F , its Emax was 62

// sample Cc1nc2ccc(OC(F)(F)F)cc2c(-c2ccccc2)c1C(=O)C(F)(F)F , its Emax was 65

// sample CC(=O)c1c(C)nc2ccc(OC(F)(F)F)cc2c1-c1cccc(Cl)c1 , its Emax was 67

P. Cc1nc2ccc(Br)cc2c(-c2ccccc2)c1C(=O)C(F)(F)F
Q. Cc1nc2cc3c(cc2c(-c2ccccc2)c1C(=O)C(F)(F)F)OC(F)(F)O3
Exercise: Lab note: record which item had the higher Emax, P or Q . Reply briefly: the label of your chosen item.
Key: P
(P: 124%, Q: 63%)
